experiment: Inhibition of rat intestinal alpha-glucosidase assessed as inhibition constant
observable: pKi
Units for pKi: none; it is -log10 of a concentration expressed in mol/L.

Looking up "N[C@H]1[C@H](O)[C@@H](O)[C@H](O)[C@@H](CO)[C@@H]1CCO" , I see its pKi listed as 5.20

----------
experiment: Inhibition of alpha-glucosidase (unknown origin) using p-nitrophenyl-alpha-D-glucopyranoside as substrate preincubated for 10 mins followed by substrate addition and measured after 20 mins by absorbance based analysis; set-up: species or system Homo sapiens
observable: IC50
A complete answer gives the number and then names the unit.

IC50 reading for "N#CC(c1c[nH]c2ccc(Br)cc12)c1c[nH]c2ccc(Br)cc12" : 7.54 µM
